Entry source: paper PMC6591177

# tested system: human IL-36γ (Homo sapiens, UniProt Q9NZH8)
# Sequence (Q9NZH8 18-169): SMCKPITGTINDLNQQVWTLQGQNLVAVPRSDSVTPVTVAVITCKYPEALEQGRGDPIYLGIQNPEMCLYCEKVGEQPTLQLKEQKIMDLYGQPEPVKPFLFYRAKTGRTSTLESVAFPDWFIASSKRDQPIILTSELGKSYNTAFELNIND
Below is a list of entries, each paired with its recorded Kd value.
observed property: Kd (nM)

>>> reported_result("COC(c1ccccc1)(c1ccccc1)[C@H](Oc1nc(C)cc(-c2ccc(C)c(N)c2)n1)C(=O)O")
67.6
>>> reported_result("COC(c1ccccc1)(c1ccccc1)[C@@H](Oc1nc(C)cc(-c2ccc(C)c(N)c2)n1)C(=O)O")
3000
